# Test system: DMS-79;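 note: growth inhibition measured with a cell viability assay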
# PROTOCOL_SUMMARY: cells
# Format: functional, cell-based, Homo sapiens
# TEST_PARAMETERS: Homo sapiens, DMS-79
# Description: SANGER: Inhibition of human DMS-79 cell growth in a cell viability assay.
pIC50: −log10 of the molar value.

COMPOUND | ASSAY_TARGET | pIC50
O=S(=O)(O)c1ccc2cc(/N=N/c3cc(S(=O)(=O)O)c4cccnc4c3O)ccc2c1 | DMS-79 | < 4.80
Cc1ccc(NC(=O)c2ccc(CN3CCN(C)CC3)cc2)cc1Nc1nccc(-c2cccnc2)n1 [IMATINIB] | DMS-79 | < 5.70
Cc1ccc(C(=O)Nc2ccc(CN3CCN(C)CC3)c(C(F)(F)F)c2)cc1C#Cc1cnc2cccnn12 [PONATINIB] | DMS-79 | < 6.29
COc1ccc(-c2cc3nccn3c(Nc3ncccc3C(N)=O)n2)cc1OC | DMS-79 | < 5.10

###

# System: CHL-1;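 note: cell growth inhibition, read out with a cell viability assay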
# PROTOCOL_SUMMARY: cells
# Type: functional, cell-based
# TEST_PARAMETERS: Homo sapiens
# Description: SANGER: Inhibition of human CHL-1 cell growth in a cell viability assay.
ENDPOINT: IC50 (nM)

STRUCTURE_STRING | ENDPOINT | MEAS_VALUE
O=C(NCCCNc1nc(Nc2cccc(NC(=O)N3CCCC3)c2)ncc1I)c1cccs1 | IC50 | 1920

###

Reported values of IC50 for individual entries
# System: VA-ES-BJ;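 note: growth inhibition of the VA-ES-BJ cell line, read out by a cell viability assay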
# PROTOCOL_SUMMARY: cells
# Type: functional, cell-based, Homo sapiens
# TEST_PARAMETERS: Homo sapiens, VA-ES-BJ
# Description: SANGER: Inhibition of human VA-ES-BJ cell growth in a cell viability assay.

STRUCTURE_STRING | ASSAY_TARGET | READOUT_UNIT | RELATION_SIGN | IC50
C/C(=C\c1csc(C)n1)[C@@H]1C[C@@H]2O[C@]2(C)CCC[C@H](C)[C@H](O)[C@@H](C)C(=O)C(C)(C)[C@@H](O)CC(=O)O1 | VA-ES-BJ | nM | = | 4.35
C[C@@H](Oc1cc(-c2cnn(C3CCNCC3)c2)cnc1N)c1c(Cl)ccc(F)c1Cl | VA-ES-BJ | nM | > | 2000
NC1(c2ccc(-c3nc4ccn5c(=O)[nH]nc5c4cc3-c3ccccc3)cc2)CCC1 | VA-ES-BJ | nM | = | 730
CS(=O)(=O)N1CCN(Cc2cc3nc(-c4cccc5[nH]ncc45)nc(N4CCOCC4)c3s2)CC1 | VA-ES-BJ | nM | = | 1610
O=S(=O)(O)c1ccc2cc(/N=N/c3cc(S(=O)(=O)O)c4cccnc4c3O)ccc2c1 | VA-ES-BJ | nM | > | 16000
CC(C)C[C@H](NC(=O)[C@H](Cc1ccccc1)NC(=O)c1cnccn1)B(O)O | VA-ES-BJ | nM | = | 1.09
CN(C)CCOc1ccc(-c2nc(-c3ccncc3)c(-c3ccc4c(c3)CC/C4=N\O)[nH]2)cc1 | VA-ES-BJ | nM | > | 5000

###

# Test system: KURAMOCHI
# PROTOCOL_SUMMARY: cells
# Format: functional, cell-based, Homo sapiens
# TEST_PARAMETERS: Homo sapiens, KURAMOCHI
# Description: SANGER: Inhibition of human KURAMOCHI cell growth in a cell viability assay.
pIC50: −log10 of the molar value.
ENDPOINT: pIC50

COMPOUND | MEAS_VALUE
CCCCCCCCCCCC1=C(O)C(=O)C=C(O)C1=O | 5.15
C=CC(=O)N1CCCC(Nc2nc(Nc3ccc(N(C)C(=O)CC)cc3)nc3[nH]cnc23)C1 (stereo not given) | < 4.99
NC(=O)c1cccc(-c2cc(Nc3ccc(OC(F)(F)F)cc3)ncn2)c1 | < 5.89
O=C1NC(=O)c2c1c(-c1ccccc1Cl)cc1[nH]c3ccc(O)cc3c21 | < 5.70
CS(=O)(=O)N1CCN(Cc2cc3nc(-c4cccc5[nH]ncc45)nc(N4CCOCC4)c3s2)CC1 | < 5.40
